Test system: HCV replicon I389luc-ubi-neo/NS3-3′/ET in ET (Huh-lucubineo-ET) cell line
method.summary: Replicon Assay
Assay type: cell-based
stated.conditions: Hepatitis C virus, read-out: Replicon Assay
pIC50: −log10 of the molar value.

compound: C[C@@]1(O)[C@H](O)[C@@H](CO)O[C@H]1n1cc([N+](=O)[O-])c2c(N)ncnc21
sign.qualifier: =
pIC50: 7.22
--
compound: C[C@@]1(O)[C@H](O)[C@@H](CO)O[C@H]1n1cc(C(=O)O)c2c(N)ncnc21 [Comparative Example A, reference compound]
sign.qualifier: <
pIC50: 4.30

###

system.tested: recombinant HCV-NS5b (Hepatitis C virus genotype 1b, UniProt Q9WMX2)
Construct: (His)6 (C)
method.summary: HCV-NS5b Enzyme Assay
pIC50: −log10 of the molar value.
readout.type: pIC50

chemical.smiles: C[C@@]1(O)[C@H](O)[C@@H](COP(=O)(O)OP(=O)(O)OP(=O)(O)O)O[C@H]1n1cc([N+](=O)[O-])c2c(N)ncnc21
readout.type: pIC50
experimental.value: 5.59

From: patent US7414031B2
